Recorded pIC50 by entry
measured.on: UniProt Q15910
Sequence (Q15910 whole entry): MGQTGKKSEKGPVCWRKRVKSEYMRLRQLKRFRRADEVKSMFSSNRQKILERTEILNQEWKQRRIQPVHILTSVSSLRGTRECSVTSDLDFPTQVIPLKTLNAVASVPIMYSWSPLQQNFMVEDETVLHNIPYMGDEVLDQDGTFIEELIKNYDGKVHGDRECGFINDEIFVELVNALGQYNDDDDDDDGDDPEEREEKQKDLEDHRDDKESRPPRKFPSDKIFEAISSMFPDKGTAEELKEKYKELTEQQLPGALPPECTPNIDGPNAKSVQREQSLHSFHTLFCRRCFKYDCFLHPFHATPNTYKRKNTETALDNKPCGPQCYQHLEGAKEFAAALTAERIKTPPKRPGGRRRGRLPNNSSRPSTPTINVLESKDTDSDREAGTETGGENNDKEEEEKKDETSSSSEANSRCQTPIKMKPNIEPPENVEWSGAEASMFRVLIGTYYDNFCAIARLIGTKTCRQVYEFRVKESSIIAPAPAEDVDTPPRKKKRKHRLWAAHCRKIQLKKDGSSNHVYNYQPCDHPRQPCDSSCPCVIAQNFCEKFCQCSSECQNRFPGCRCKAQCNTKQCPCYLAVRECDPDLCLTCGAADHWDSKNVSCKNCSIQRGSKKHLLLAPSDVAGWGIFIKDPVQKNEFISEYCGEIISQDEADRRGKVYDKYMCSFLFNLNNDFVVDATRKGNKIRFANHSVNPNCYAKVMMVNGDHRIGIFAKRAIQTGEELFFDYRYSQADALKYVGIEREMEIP
Sequence (O75530 whole entry partner): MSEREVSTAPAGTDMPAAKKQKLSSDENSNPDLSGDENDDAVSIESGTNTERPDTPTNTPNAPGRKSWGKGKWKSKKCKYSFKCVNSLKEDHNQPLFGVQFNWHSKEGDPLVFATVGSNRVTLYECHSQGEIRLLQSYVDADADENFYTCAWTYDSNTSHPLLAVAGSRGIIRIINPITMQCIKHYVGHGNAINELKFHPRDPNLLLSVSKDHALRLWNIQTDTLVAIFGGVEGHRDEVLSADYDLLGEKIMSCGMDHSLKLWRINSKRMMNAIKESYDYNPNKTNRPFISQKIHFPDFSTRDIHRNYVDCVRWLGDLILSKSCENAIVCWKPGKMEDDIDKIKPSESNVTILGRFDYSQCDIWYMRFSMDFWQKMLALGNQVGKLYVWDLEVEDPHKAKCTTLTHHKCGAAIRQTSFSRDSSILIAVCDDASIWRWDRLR
Sequence (Q15022 whole entry partner): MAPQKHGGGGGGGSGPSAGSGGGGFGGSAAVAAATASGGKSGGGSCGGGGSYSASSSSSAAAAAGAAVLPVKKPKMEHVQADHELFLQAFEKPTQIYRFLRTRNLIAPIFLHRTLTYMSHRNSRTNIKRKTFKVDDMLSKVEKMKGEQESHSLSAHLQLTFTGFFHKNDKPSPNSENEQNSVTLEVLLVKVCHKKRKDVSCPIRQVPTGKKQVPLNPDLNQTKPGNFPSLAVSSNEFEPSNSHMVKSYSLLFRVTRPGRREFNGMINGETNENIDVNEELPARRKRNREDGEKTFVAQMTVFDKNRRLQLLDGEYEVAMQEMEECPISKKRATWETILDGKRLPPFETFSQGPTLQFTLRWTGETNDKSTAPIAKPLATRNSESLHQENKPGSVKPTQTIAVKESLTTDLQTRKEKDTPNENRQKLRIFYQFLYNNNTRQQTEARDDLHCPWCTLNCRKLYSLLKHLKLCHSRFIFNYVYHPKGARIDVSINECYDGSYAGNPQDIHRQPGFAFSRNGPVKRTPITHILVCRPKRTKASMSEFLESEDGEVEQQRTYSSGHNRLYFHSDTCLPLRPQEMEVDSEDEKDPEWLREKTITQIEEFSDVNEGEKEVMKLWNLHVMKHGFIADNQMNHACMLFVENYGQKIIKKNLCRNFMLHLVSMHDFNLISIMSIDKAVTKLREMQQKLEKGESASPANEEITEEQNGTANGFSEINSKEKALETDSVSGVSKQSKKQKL
protocol.description: EZH2 assay: rPRC2, biotinylated oligonucleosomes, 3H SAM methyl transfer (FlashPlate scintillation)
Type: biochemical
reported.conditions: EZH2 IC50, wild-type EZH2 (rPRC2), biotinylated oligonucleosome substrate
pIC50: −log10 of the molar value.

// worked examples, pIC50 included
CCN1CCC(C(C)n2c(C)c(C(=O)NCc3c(OC)cc(C)[nH]c3=O)c3ccccc32)CC1 (single isomer, unassigned) | > 7.00
COc1cc(C)[nH]c(=O)c1CNC(=O)c1c(C)n(C(C)C2CCCN(S(C)(=O)=O)C2)c2ccccc12 (stereo not shown) | > 7.00
COc1ncc2c(C(=O)NCc3c(C)cc(C)nc3O)c(C)n([C@H](C)c3ccccc3)c2n1 | 6.00 to 7.00
Cc1cc(C)c(CNC(=O)c2c(C)n(C(C)c3ccccc3)c3cccnc23)c(O)n1 (racemic) | 6.00 to 7.00
COc1cc(C)[nH]c(=O)c1CNC(=O)c1c(C)n(C(C)C2CCN(C(=O)OC(C)C)CC2)c2ccccc12 (single isomer, unassigned) | > 7.00

The compound listed as Cc1cc(C)c(CNC(=O)c2c(C)n(C(C)c3ccccc3)c3cnccc23)c(=O)[nH]1 (single isomer, unassigned) [Compound 247] shows pIC50 equal to > 7.00

The compound listed as COCC(C)n1c(C)c(C(=O)NCc2c(OC)cc(C)[nH]c2=O)c2cccnc21 (racemic) [Compound 204] shows pIC50 equal to > 7.00

Where do the numbers come from? From patent US9371331B2.
